The measurements presented in this section are drawn from PubChem BioAssay (NCI).

growth for assorted molecules
# Tested on: MDA-MB-468 breast
# protocol description: NCI-60 one-dose screen, 48 h (100 = growth as untreated, 0 = no growth, -100 = all killed)
# measurement context: 10 µM unless noted
This is part of a sample that, as a whole, favours compounds with a hit. Of some 83,000 tested, about 20% had one in any assay. Activity calls are given as the source filed them. The calls were made as follows: active = growth percent below 10; inactive = the rest.

test smiles: CC(C)C[C@H](C(=O)N[C@@H](C)C(N)=O)N1CC=CCN(O)S1(=O)=O
growth: 109% [5 µM] (inactive)
//
test smiles: CCN(CC)CC(=O)Nc1c(C)cccc1C
growth: 101% (inactive)
//
test smiles: C=C(C)[C@@H]1CCC[C@]2(C(=O)OC)CC[C@]3(C)[C@@H](CC[C@@H]4[C@@]5(C)CCCNC(C)(C)[C@@H]5CC[C@]43C)[C@@H]12
growth: 65.3% (inactive)
//
test smiles: O=c1oc2ccc([N+](=O)[O-])cc2cc1Br
growth: 101% (inactive)
//
test smiles: S=c1nc2oc(-c3ccccc3)c(-c3ccccc3)c2c(/N=C\c2ccco2)[nH]1
growth: 91.6% (inactive)

---

growth for assorted compounds
# Tested on: MDA-MB-468 breast
# protocol description: NCI-60 one-dose screen, 48 h (100 = growth as untreated, 0 = no growth, -100 = all killed)
# measurement context: 10 µM unless noted
The panel holds about 83,000 compounds, 20% with a hit somewhere; the sample as a whole holds those more often.

compound: O=C(CNc1nc2ccccc2s1)Nc1ccc(-c2nc3ccccc3s2)cc1
growth [%]: -17.8
--
compound: CC1Cc2ccccc2O1 (stereo not given)
growth [%]: 120
--
compound: O=C1/C(=C/c2cccc(F)c2)Cc2ccccc21
growth [%]: 107
--
compound: C=C(C)[C@@H]1CC[C@]2(C=NCCCNCCCCNCCCN)CC[C@]3(C)[C@H](CC[C@@H]4[C@@]5(C)CCCNC(C)(C)[C@@H]5CC[C@]43C)[C@@H]12
growth [%]: 98.5
--
compound: CCCCn1c(=O)c(/C=C/C(=O)/C=C/c2cc3ccccc3n(CCCC)c2=O)cc2ccccc21
growth [%]: -59.4

---

# Test system: RPMI-8226 leukemia
# protocol description: NCI-60 one-dose screen, 48 h (100 = growth as untreated, 0 = no growth, -100 = all killed)
# measurement context: 10 µM
About 83,000 compounds went through this panel and 20% of them were active in at least one assay; those are over-represented in the sample as a whole.
measurement kind: growth (%)

test smiles: O=C(CC(=O)Nc1ccc(Oc2ncnc3scc(Nc4n[nH]c(=S)s4)c23)cc1)Nc1ccc(Br)cc1
measurement kind: growth
recorded number: 110

test smiles: Cc1ccc(-c2nc(C#N)c(S(=O)(=O)N3CCN(S(C)(=O)=O)CC3)o2)cc1
measurement kind: growth
recorded number: 4.64

test smiles: Cn1cc(/C=C(/SS/C(=C/c2cn(C)c3cccc(C(=O)O)c23)C(=O)O)C(=O)O)c2c(C(=O)O)cccc21
measurement kind: growth
recorded number: 105

test smiles: COc1ccc2[nH]cc(-c3nc(N)nnc3-c3cn(C)c4ncc(Br)cc34)c2c1
measurement kind: growth
recorded number: -16

test smiles: O=C(CC(=O)Nc1ccc(Oc2ncnc3scc(Nc4n[nH]c(=S)s4)c23)cc1)Nc1ccc(Cl)cc1
measurement kind: growth
recorded number: 86.8

---

# System: A498 renal
# protocol description: NCI-60 one-dose screen, 48 h (100 = growth as untreated, 0 = no growth, -100 = all killed)
# measurement context: 10 µM
# Description: Growth inhibition of the A498 human tumor cell line is measured as a screen for anti-cancer activity. Cells are grown in 96 well plates and exposed to the test compound for 48 hours. Compounds are tested at a single concentration, which is 10^-5 M for most compounds. The reported endpoint is percent growth (GI% or GIPRCNT), where numbers from 0 - 100% represent growth inhibition, and numbers from -100% - 0 represent cell death. For example, a value of 40 represents 60% growth inhibition. […]
About 83,000 compounds went through this panel and 20% of them were active in at least one assay; those are over-represented in the sample as a whole. Calls of active or inactive are those of the source. The calls were made as follows: active = growth percent below 10; inactive = the rest.

molecule: O=C(c1ccc(F)cc1)C(c1c[nH]c2ccccc12)c1c[nH]c2ccccc12
growth: 98.3% (inactive)
--
molecule: COc1ccc(C2OC[C@@]3(C)C4CC[C@]5(C)C(CC=C6C7CC(C)(C)CC[C@]7(C(=O)O)CC[C@]65C)[C@@]4(C)C[C@@H](O)[C@@H]3O2)cc1 (stereo partly specified)
growth: 102% (inactive)
--
molecule: COc1cc(C2CC(c3ccccc3)=Nc3c(N)nc(N)nc3N2)ccc1Oc1nc(NCCO)nc(N2CCOCC2)n1 (stereo unspecified)
growth: 113% (inactive)
--
molecule: Cc1ccc2sc3c(c2c1)Oc1nc[nH]c(=O)c1C3c1cccc(F)c1 (stereo unspecified)
growth: 129% (inactive)
--
molecule: COc1ccc(Cn2cc(C#N)c(N)c2C(C)=O)c(OC)c1
growth: 97.8% (inactive)
--
molecule: O=C(CSc1nc2ccccc2c(=O)n1-c1ccc(Cl)cc1)Nc1ccc(-c2nc3ccccc3[nH]2)cc1
growth: 109% (inactive)
--
molecule: CCn1c(SCC(=O)Nc2ccc(-c3nc4ccccc4[nH]3)cc2)nc2ccccc2c1=O
growth: -75% (active)
--
molecule: O=C(c1ccccc1)c1ccc2nc(-c3ccccc3Br)[nH]c2c1
growth: 9.77% (active)
--
molecule: CC(C)(C)c1cc(/C=C2\S/C(=N/c3ncn[nH]3)NC2=O)cc(C(C)(C)C)c1O
growth: 32.8% (inactive)
--
molecule: Cc1ccc(-c2nc(C#N)c(S(=O)(=O)N3CCN(S(C)(=O)=O)CC3)o2)cc1
growth: 132% (inactive)
--
molecule: COc1cccc(C(=O)CSc2nc(-c3ccc(OCc4ccccc4)c(OC)c3)c(C#N)c(=O)[nH]2)c1
growth: 95.4% (inactive)
--
molecule: COc1ccc(C2c3sc4ccc(C)cc4c3Oc3nc[nH]c(=O)c32)cc1 (stereo unspecified)
growth: 119% (inactive)
--
molecule: O=C(Nc1ccc(OCc2ccc(Cl)cc2)cc1)Nc1ccc(Cl)c(C(F)(F)F)c1
growth: -12.4% (active)
--
molecule: O=C(CN1CCN(c2ncnc3c2cnn3-c2ccccc2)CC1)Nc1ccc(Br)cc1
growth: 90.9% (inactive)
--
molecule: O=C(Nc1ccc(OCC(=O)c2ccc(Cl)cc2)cc1)Nc1ccc(Cl)c(C(F)(F)F)c1
growth: 0.685% (active)
--
molecule: COc1cc2oc(-c3cccc(C(=O)Nc4ccc(Cl)cc4)c3)cc(=O)c2c(OCCN)c1OC
growth: -93.9% (active)
--
molecule: Cc1cc(N=C2NC(=O)S/C2=C\c2ccc(F)cc2)n[nH]1
growth: 64% (inactive)
--
molecule: O=C(Nc1ccc(OCc2ccc(F)cc2)cc1)Nc1ccc(Cl)c(C(F)(F)F)c1
growth: -9.28% (active)
--
molecule: COc1cc(C2CC(c3ccc(Oc4ccc(Cl)cc4)cc3)=NN2c2nc(-c3ccc(Cl)cc3)c(C#N)c(N3CCOCC3)n2)cc(OC)c1OC (stereo unspecified)
growth: 114% (inactive)
--
molecule: COc1ccc(Cc2nn(CC(=O)N/N=C/c3ccc(Br)cc3)c(=O)c3c(C)noc23)cc1
growth: 21.3% (inactive)
--
molecule: COC(=O)CNC(=O)COc1c(OC)c(OC)cc2oc(-c3cccc(C(=O)Nc4ccc(Cl)cc4)c3)cc(=O)c12
growth: 119% (inactive)

---

# Test system: MDA-MB-468 breast
# protocol description: NCI-60 one-dose screen, 48 h (100 = growth as untreated, 0 = no growth, -100 = all killed)
# measurement context: 10 µM unless noted
About 83,000 compounds went through this panel and 20% of them were active in at least one assay; those are over-represented in the sample as a whole.
measurement kind: growth (%)

test smiles: CCc1c(C)c2ccc(O)c(-c3cc(-c4ccccc4)c(C#N)c(=O)[nH]3)c2oc1=O
measure unit: %
recorded number: 102
//
test smiles: O=C1C(Cl)=C(NCCN2CCOCC2)C(=O)c2ncccc21
measure unit: %
recorded number: -74.1
//
test smiles: Clc1ccc2c(NCCCN3CCN(c4nc(N5CCOCC5)nc5ccccc45)CC3)ccnc2c1
measure unit: %
recorded number: -74.3
//
test smiles: CC(C)(C)Nc1c(-c2c3ccccc3cc3ccccc23)nc2ccccn12
measure unit: %
recorded number: 68.4
//
test smiles: CCOc1nc(-c2ccccc2)cc2c(O)c(C(=O)N/N=C/c3ccc(OC)cc3)[nH]c(=O)c12
measure unit: %
recorded number: 61.9

---

# System: MDA-MB-468 breast
# protocol description: NCI-60 one-dose screen, 48 h
# measurement context: 10 µM unless noted
This is part of a sample that, as a whole, favours compounds with a hit. Of some 83,000 tested, about 20% had one in any assay. Activity calls are given as the source filed them. How the source made its calls: active means growth percent below 10; inactive means the rest.
Outcomes: true (active), false (inactive)

molecule: C=CCCCCOc1cccc(/C=C2\N=C3SCCCN3C2=O)c1
target under test: MDA-MB-468 breast
group label: false
--
molecule: CC/C=C\C[C@H](O)C/C=C1/C(=O)C=C[C@@H]1C/C=C\CCCC(=O)O
target under test: MDA-MB-468 breast
group label: false
--
molecule: CCc1c(C(=O)Nc2ccc3ccccc3c2)[nH]c(C)c1C(C)=O
target under test: MDA-MB-468 breast
group label: false
--
molecule: Cc1cccc2c1O/C(=C\c1ncc([N+](=O)[O-])n1C)C2=O
target under test: MDA-MB-468 breast
group label: true
--
molecule: N#Cc1nn(-c2ccccn2)c(N)c1C#N
target under test: MDA-MB-468 breast
group label: false
--
molecule: COc1cc2oc3cc(=O)cc4oc(-c5ccccc5)cc(c2c2c1CCC(c1ccccc1)O2)c43 (centres undefined)
target under test: MDA-MB-468 breast
group label: false
--
molecule: C=C1C(=O)O[C@H]2[C@H]1CC/C(COC(=O)N[C@H]1C[C@H](O[C@H]3C[C@](O)(C(=O)CO)Cc4c(O)c5c(c(O)c43)C(=O)c3c(OC)cccc3C5=O)O[C@@H](C)[C@H]1O)=C\CC[C@@]1(C)O[C@@H]21
target under test: MDA-MB-468 breast
group label: true
--
molecule: COC(=O)c1c2c(c(C)[n+]([O-])c1C)C(=O)C=C(NCc1ccccc1)C2=O
target under test: MDA-MB-468 breast
group label: true
--
molecule: C=CCn1c(SCC(=O)Nc2cccc(C(=O)/C=C/c3ccccc3Cl)c2)nc2ccccc2c1=O
target under test: MDA-MB-468 breast
group label: false
--
molecule: O=C(CCN1CCCC1)Nc1ccc2c(NCCc3ccccc3)c3ccccc3nc2c1
target under test: MDA-MB-468 breast
group label: true
--
molecule: C/C(=C\c1cnc(C)s1)[C@@H]1C[C@@H]2O[C@@H]2CCC[C@H](C)[C@H](O)[C@@H](C)C(=O)C(C)(C)[C@@H](O)CC(=O)O1
target under test: MDA-MB-468 breast
group label: false
--
molecule: CC(=O)NNC(=S)N/C=C/c1c(C)ccc([N+](=O)[O-])c1[N+](=O)[O-]
target under test: MDA-MB-468 breast
group label: false
--
molecule: CCNC(=S)n1nc(SC)c(C(=O)OCC)c1N
target under test: MDA-MB-468 breast
group label: false
--
molecule: COc1ccc(C2CC(c3ccc(Cl)cc3)=NN2/C=C2\SC(=S)N(NC(=O)Cc3ccccc3Nc3c(Cl)cccc3Cl)C2=O)cc1 (centres undefined)
target under test: MDA-MB-468 breast
group label: false
--
molecule: Nc1ncc(-c2ccc3ncnc(Nc4cccc(Cl)c4F)c3c2)cn1
target under test: MDA-MB-468 breast
group label: true
--
molecule: Cc1cc(=O)cc(C)n1-c1ccccc1
target under test: MDA-MB-468 breast
group label: false
--
molecule: CCCCCCCC(=O)SCC/C=C/[C@@H]1CC(=O)NCc2nc(cs2)C2=N[C@@](C)(CS2)C(=O)N[C@@H](C(C)C)C(=O)N1
target under test: MDA-MB-468 breast
group label: false
--
molecule: OC(c1cc(-c2ccccc2)nc2ccc(Cl)cc12)C1CCCCN1 (centres undefined)
target under test: MDA-MB-468 breast
group label: true
--
molecule: C/C(=N/NC(N)=S)c1ccc(Nc2nc(SCC(C)C)nc(-c3ccc(F)cc3)c2C#N)cc1
target under test: MDA-MB-468 breast
group label: true
